# TGI annotations
Test system: HCT-15 colon
method-description: NCI tumour cell line growth inhibition, 48 h
Numbers only; they are read as µM.

Solved cases below.
* CC(=Nc1ccncc1)C(C)=Nc1ccncc1 | 27.5
* COc1ccc2c(c1)/c(=C/c1ccc(N(C)C)cc1)c1cc(-c3ccccc3)[n+](C)n12 | 4.02

Proceeding to the next compound to report its TGI.
Asked: Item under review: CCOC(=O)CC1NC(=O)CS1 (stereo not given) . Reported TGI?
Given back: 45.1

====

# GI50 annotations
Test system: OVCAR-3 ovarian
method-description: NCI tumour cell line growth inhibition, 48 h

* O=[N+]([O-])c1ccc2c(c1)[O][Sn]([I])([I])[O]2 | > 100 µM

Asked: Item under review: "Oc1ccccc1-c1nc2c3ccccc3c3ccccc3c2[nH]1" . Reported GI50?
Given back: 11.1 µM

Asked: "C/C(=N\NC(N)=S)c1nc2ccc(Cl)cc2[nH]1" , same question.
Given back: 2.85 µM

Asked: "CC(C)[C@H]1C(=O)N[C@@H](CCCN=C(N)N)C(=O)NCC(=O)N[C@@H](CC(=O)O)C(=O)N[C@H](Cc2ccccc2)C(=O)N1C" , same question.
Given back: > 100 µM

Asked: "COC(=O)CCCCCN=Cc1c(O)c(O)c(C(C)C)c2cc(C)c(-c3c(C)cc4c(C(C)C)c(O)c(O)c(C=NCCCCCC(=O)OC)c4c3O)c(O)c12" , same question.
Given back: 1.27 µM

Asked: COc1cc(S(=O)(=O)Nc2ccc(C3=NNC(c4ccccc4)C3)cc2)ccc1F (stereo unspecified) , same question.
Given back: 50.3 µM

Asked: COc1ccc(C2CC(n3nnnc3-c3ccccc3)=NN2)cc1 (stereo unspecified) , same question.
Given back: 3.05 µM

Asked: CCC(c1cccc(O)c1)C(CC)c1cccc(O)c1 (stereo unspecified) , same question.
Given back: 6.2 µM

Asked: "Cc1ccc(NC(=O)Cn2c(Br)nc3c2c(=O)n(C)c(=O)n3C)cc1" , same question.
Given back: 2.31 µM

====

System: OVCAR-5 ovarian
method-description: NCI tumour cell line growth inhibition, 48 h; in the data active = GI50 below about 0.43 µM; inactive = the rest
Classes to choose from: active, inactive

Example entries and their recorded answers appear below.
• COc1cc(/C=C2/N=C(c3ccccc3)N(C3=NNC4(C(=O)N3)c3ccccc3-c3ccccc34)NC2=O)ccc1O = inactive
• CSc1ccc(/C=C2\C=C(CC(=O)NCc3ccc(C(=O)c4ccccc4)cc3)c3cc(F)ccc32)cc1 = active
• CN(C)C(=O)O[C@@H]1CN[C@@H](C#Cc2cc3ncnc(Nc4ccc(OCc5cccc(F)c5)c(Cl)c4)c3s2)C1 = inactive
• Cc1cc(N/N=C/c2nc(-c3ccc(Cl)cc3)oc2C)c2cc(Cl)ccc2n1 = inactive
• Cc1cc(-c2nnc3n2CCCCC3)c(C)n1-c1ccc(Cl)c(Cl)c1 = inactive

Asked: Which result was noted for this compound in the test: C[C-](O)O.O/C(=C\[C-](O)c1ccccc1)c1ccccc1.O/C(=C\[C-](O)c1ccccc1)c1ccccc1.[Nd+3] (stereo not given)
Given back: inactive

====

# TGI annotations
Test system: HCT-116 colon
method-description: NCI tumour cell line growth inhibition, 48 h
Numbers only; they are read as µM.

Solved cases below.
- C[C@]12CC[C@@H]3c4ccc(OC(=O)c5ccccc5)cc4CC[C@H]3[C@@H]1CC[C@@H]2Oc1c2ccccc2nc2ccccc12: 18
- C=C1C(=O)O[C@H]2C[C@@]3(C)[C@H](O)CCC(=C)[C@@H]3[C@@H](OC(C)=O)[C@H]12: 22.2
- Cc1c2cc[n+](C)cc2c(C)c2c1[nH]c1ccc(O)c(OCC(F)(F)F)c12: 12.1

Proceeding to the next molecule to report its TGI.
Asked: Value wanted: TGI (HCT-116 colon) of entry "CC[C@@]1(O)C(=O)OCc2c1cc1n(c2=O)Cc2cc3cc(N)ccc3nc2-1"
Given back: 1.65

====

Tested on: COLO 205 colon
method-description: NCI tumour cell line growth inhibition, 48 h; in the data active = GI50 below about 0.43 µM; inactive = the rest
Classes to choose from: active, inactive

Example entries and their recorded answers appear below.
- Cc1ccc(NC(=O)Cn2c(Br)nc3c2c(=O)n(C)c(=O)n3C)cc1: inactive
- Oc1ccccc1-c1nc2c3ccccc3c3ccccc3c2[nH]1: inactive
- COC(=O)CCCCCN=Cc1c(O)c(O)c(C(C)C)c2cc(C)c(-c3c(C)cc4c(C(C)C)c(O)c(O)c(C=NCCCCCC(=O)OC)c4c3O)c(O)c12: inactive

Asked: Which result was noted for this compound in the test: "COC(=O)C1=C(C(=O)OC)SC(=C(Cl)C(=S)Sc2ccccc2N)S1"
Given back: inactive

Asked: "COc1ccc(Cl)cc1Nc1nc(C(F)(F)F)ccc1C(=O)N/N=C/c1cc(OC)c(OC)c(OC)c1" , same question.
Given back: inactive

====

Test system: SF-295 CNS
method-description: NCI tumour cell line growth inhibition, 48 h
quantity-measured: TGI

• CC(C)N(C)C(=O)C12C3C4C1C1C2C3C41C#N (stereo not given) = > 100 µM
• O=c1[nH]c2cc3[nH]c4ncccc4c(=O)c3cc2[nH]1 = > 10 µM
• C[n+]1c2ccccc2c(C(=O)Nc2ccc(S(=O)(=O)N=C(N)N)cc2)c2ccccc21 = > 100 µM
• NCCCCNCCCNC(=O)c1nc(-c2csc(CCN)n2)sc1Cl = > 100 µM
• Nc1cc(N2CCCC2)nc(=O)n1Cc1ccccc1 = > 100 µM

Asked: Item under review: "O=C(NCc1ccc(Cl)cc1)c1cc2sccc2nc1C(F)(F)F" . Reported TGI?
Given back: > 100 µM

Asked: "CC(=O)c1cc2ccccc2n(O)c1=N" , same question.
Given back: > 100 µM

Asked: COc1ccc(C2C(C#N)=C(S)N(C3OC(CO)C(O)C(O)C3O)C(c3ccccc3)=C2C(C)=O)cc1 (stereo not given) , same question.
Given back: > 100 µM

Asked: "COc1cc(Br)c(C=Nc2cccc3ccc(OS(=O)(=O)c4cccc([N+](=O)[O-])c4)cc23)cc1OC" , same question.
Given back: 60.4 µM

Asked: "O=C1c2ccccc2-n2c1nc1ccccc1c2=O" , same question.
Given back: 18.8 µM

====

Test system: IGROV1 ovarian
method-description: NCI tumour cell line growth inhibition, 48 h
# TGI annotations

Solved cases below.
- O=C1CCCN1CC#CCN1CCCC1: > 100 µM
- Cc1c(Cl)cccc1NC(=O)CC1C(=O)Nc2ccccc2S1(=O)=O (configuration not stated): 31.7 µM
- COc1cc(C2SCC(=O)N2c2ccc(Oc3ccc(Cl)cc3)c(Cl)c2)cc(OC)c1OC (configuration not stated): 30.7 µM

Proceeding to the next molecule to report its TGI.
Asked: Value wanted: TGI (IGROV1 ovarian) of entry "Cc1cc(C)n(CN(Cn2nc(C)cc2C)C2CCCCC2)n1"
Given back: 50.1 µM

====

Test system: SF-295 CNS
method-description: NCI tumour cell line growth inhibition, 48 h
quantity-measured: TGI

Solved cases below.
- O=c1[nH]nc(Cc2ccccc2)n1-n1cnnc1: > 100 µM
- CSc1cc(N)ccc1N=Nc1ccc(S(N)(=O)=O)cc1: 56.6 µM
- C[N+]1(C)C/C(=C\c2ccncc2)C(=O)/C(=C/c2ccncc2)C1: > 100 µM
- Nc1nc(CCC(=O)Nc2cccc(C(F)(F)F)c2)cc(-c2ccc3ccccc3c2)n1: > 100 µM
- Fc1cccc(Cl)c1/C=N\N=C1c2ccccc2-c2ccccc21: > 100 µM

Proceeding to the next molecule to report its TGI.
Asked: Value wanted: TGI (SF-295 CNS) of entry "COc1cc(Cn2c(-c3nonc3N)nc3ccccc32)ccc1C"
Given back: 5.63 µM

====

Test system: SK-MEL-2 melanoma
method-description: NCI tumour cell line growth inhibition, 48 h
# TGI annotations

* CC(=O)O[C@H]1C(=O)[C@@]2(C)[C@H]([C@H](OC(=O)c3ccccc3)[C@]3(O)C[C@H](OC(=O)[C@H](O)[C@@H](NC(=O)CC(C)(C)C)c4ccccc4)C(C)=C1C3(C)C)C1(OC(C)=O)CO[C@@H]1C[C@@H]2O (stereo not given in full) | > 10 µM

Asked: Item under review: C[C@]12CC[C@@H]3c4ccc(O)cc4C(O)C[C@H]3[C@@H]1CCC2=O (stereo not given in full) . Reported TGI?
Given back: > 100 µM

Asked: COc1cc(C2S/C(=C/c3ccccc3)C(=O)N2c2ccc(Cl)c(Cl)c2)cc(OC)c1OC (stereo not given) , same question.
Given back: > 59.6 µM

Asked: "Oc1ccccc1-c1nc2c3ccccc3c3ccccc3c2[nH]1" , same question.
Given back: 16.7 µM

Asked: "O=C(NCc1ccc(Cl)cc1)c1cc2sccc2nc1C(F)(F)F" , same question.
Given back: > 100 µM

====

Test system: NCI-H23 lung
method-description: NCI tumour cell line growth inhibition, 48 h
# TGI annotations

* CSc1ccc(/C=C2\C=C(CC(=O)NCc3ccc(C(=O)c4ccccc4)cc3)c3cc(F)ccc32)cc1 | 2.89 µM
* COc1ccc2nc3cc(Cl)ccc3c(NCCNCCCNC(=O)c3cc(-c4ccccc4)nc4ccccc34)c2c1 | > 100 µM
* O=C1CCCN1CC#CCN1CCCC1 | > 100 µM

Asked: Item under review: Cc1c(NC2(C)C(=O)N(/N=C/c3ccccc3)N=C2c2ccccc2)n[nH]c1-c1ccccc1 (stereo unspecified) . Reported TGI?
Given back: > 100 µM

Asked: "C[C@]12CC[C@@H]3c4ccc(OC(=O)c5ccccc5)cc4CC[C@H]3[C@@H]1CC[C@@H]2Oc1c2ccccc2nc2ccccc12" , same question.
Given back: > 50 µM

Asked: "COc1ccc(C(=O)N2c3ccccc3Sc3ccccc32)c(C(F)(F)F)c1" , same question.
Given back: > 100 µM

Asked: "COC(=O)CCC1=C(C)/C(=C/c2[nH]c(-c3ccc[nH]3)cc2OC)N=C1C" , same question.
Given back: 3.84 µM

Asked: COC(=O)C1=C(CS(=O)c2ccccc2[N+](=O)[O-])ON(C)C1c1ccccc1 (stereo unspecified) , same question.
Given back: > 100 µM
